TEST_METHOD_NOTES: ATG_Ets_CIS: Attagene CIS-FACTORIAL HepG2 Assay for human Erythroblast Transformation Specific (ETS) (AID 2282941)
CONDITION_LABEL: HepG2 ETS cis-reporter transcription, actives raise or lower the signal
Activity calls are given as the source filed them. How the source made its calls: active means hit-call score of the fitted dose curve at least 0.9, where 1 is the maximum; inactive means score below 0.9.
Pick one: true for active, false for inactive

[
  {
    "COMPOUND": "CC(C)=CCC/C(C)=C\\C#N",
    "CLASSIFICATION": "false"
  }
]

## Task Please indicate how the test categorized `O=c1n(CCO)c(=O)n(CCO)c(=O)n1CCO` .
## Result false

## Task Please indicate how the test categorized `CCOC(=O)c1ccccc1C(=C1C=C(Br)C(=O)C(Br)=C1)c1cc(Br)c(O)c(Br)c1` .
## Result false

## Task Please indicate how the test categorized `CC(C)COC(=O)C=Cc1ccccc1` .
## Result false

## Task Please indicate how the test categorized `C=C(C)[C@@H]1CCC2=CCC[C@@H](C)[C@]2(C)C1` .
## Result false

## Task Please indicate how the test categorized `CC(C)C1=CC2=CC[C@@H]3[C@](C)(CCC[C@@]3(C)C(=O)O)[C@H]2CC1` .
## Result false

## Task Please indicate how the test categorized `CC1(C)[C@H]2CC[C@]1(C)C(=O)C2` .
## Result false

## Task Please indicate how the test categorized `Cc1ccc([N+](=O)[O-])cc1S(=O)(=O)O` .
## Result false

## Task Please indicate how the test categorized `OCCNCc1ccccc1` .
## Result false

## Task Please indicate how the test categorized Cc1ccc(C2OC[C@@H]3OC(c4ccc(C)cc4)O[C@H]([C@H](O)CO)[C@@H]3O2)cc1 (stereo partly specified) .
## Result false

## Task Please indicate how the test categorized CC(C)CC(O)Cc1ccccc1 (stereo unspecified) .
## Result false

## Task Please indicate how the test categorized `CC(C)(c1cc(Br)c(OCCO)c(Br)c1)c1cc(Br)c(OCCO)c(Br)c1` .
## Result true

## Task Please indicate how the test categorized `CCCCCCCC/C=C\CCCCCCCC(=O)OCCO` .
## Result false

## Task Please indicate how the test categorized `C=C(C)c1cccc(C(C)(C)N=C=O)c1` .
## Result false

## Task Please indicate how the test categorized `CC(=O)NS(=O)(=O)c1ccc(N)cc1` .
## Result false

## Task Please indicate how the test categorized `CC(=O)Oc1ccc(C(C)=O)cc1` .
## Result false

## Task Please indicate how the test categorized `CC[C@H]1OC(=O)[C@H](C)[C@@H](O[C@H]2C[C@@](C)(OC)[C@@H](O)[C@H](C)O2)[C@H](C)[C@@H](O[C@@H]2O[C@H](C)C[C@H](N(C)C)[C@H]2O)[C@](C)(O)C[C@@H](C)C(=NOCOCCOC)[C@H](C)[C@@H](O)[C@]1(C)O` .
## Result false

## Task Please indicate how the test categorized CCCC(C)CCC(C)=O (stereo unspecified) .
## Result false

## Task Please indicate how the test categorized `CC(=O)Nc1ccc2c(c1)Cc1cc(NC(C)=O)ccc1-2` .
## Result false

## Task Please indicate how the test categorized `CCOCC(=O)O` .
## Result false

---

TARGET_SYSTEM: human Retinoic Acid Receptor gamma (RARg), RARG (gene 5916)
TEST_METHOD_NOTES: ATG_RARg_TRANS: Attagene TRANS-FACTORIAL HepG2 Assay for human Retinoic Acid Receptor gamma (RARg) (AID 2283009)
Inconclusive results are not listed. Active and inactive are the calls of the source. Rule for the calls: active = hit-call score of the fitted dose curve at least 0.9, where 1 is the maximum; inconclusive = response in the unintended direction; inactive = score below 0.9.
Pick one: active, inactive

Please review the following examples before continuing.
[
  {
    "COMPOUND": "CCOC(=O)NNc1nncc2ccccc12",
    "TARGET_SYSTEM": "human Retinoic Acid Receptor gamma (RARg), RARG (gene 5916)",
    "CLASSIFICATION": "inactive"
  },
  {
    "COMPOUND": "CC(C)(c1cc(Br)c(OCCO)c(Br)c1)c1cc(Br)c(OCCO)c(Br)c1",
    "TARGET_SYSTEM": "human Retinoic Acid Receptor gamma (RARg), RARG (gene 5916)",
    "CLASSIFICATION": "active"
  },
  {
    "COMPOUND": "CC(C)(C)c1n[nH]c(=O)n(N)c1=O",
    "TARGET_SYSTEM": "human Retinoic Acid Receptor gamma (RARg), RARG (gene 5916)",
    "CLASSIFICATION": "inactive"
  }
]

## Task Please indicate how the test categorized `CCCCCCCCCCCCCCCCCC#N` .
## Result inactive

## Task Please indicate how the test categorized `Cc1c(C)c([N+](=O)[O-])c(C(C)(C)C)c([N+](=O)[O-])c1C` .
## Result inactive

## Task Please indicate how the test categorized `Cc1cc(=O)n(-c2ccccc2)n1C` .
## Result inactive

## Task Please indicate how the test categorized `CCCCCCCCCCCCCCCC[N+](C)(C)CC` .
## Result active

## Task Please indicate how the test categorized C=C1C2CCC(C2)C1(C)C (stereo not drawn) .
## Result inactive

## Task Please indicate how the test categorized `O=C(O)c1ccccc1Nc1cccc(C(F)(F)F)c1` .
## Result inactive
